System: Caco-2
ASSAY DETAILS: Cytotoxicity against human Caco2 cells assessed as cell viability after 24 hrs by MTT assay
Format: functional, cell-based
MEASUREMENT CONTEXT: Caco-2, 24 h
METRIC: IC50 (µM)
Kindly answer with a numeric value in µM, unit omitted.

Solved entries:
- TEST SMILES: "C[C@H](CCC(=O)NC1CC1)[C@H]1CC[C@H]2C3=CC[C@@H]4C[C@H](O)CC[C@]4(C)[C@H]3CC[C@]12C"
  IC50 [µM]: 9.5
- TEST SMILES: "C[C@H](CCC(N)=O)[C@H]1CC[C@H]2[C@@H]3CC[C@@H]4C[C@@H](N=[N+]=[N-])CC[C@]4(C)[C@H]3C[C@H](O)[C@]12C"
  IC50 [µM]: 10.7

--- query ---
Query for Caco-2: what IC50 does the record show for C[C@H](CCC(=O)NC1CC1)[C@H]1CC[C@H]2[C@@H]3[C@H](O)C[C@@H]4C[C@@H](N=[N+]=[N-])CC[C@]4(C)[C@H]3CC[C@]12C ?
7.6

----------
System: Caco-2
ASSAY DETAILS: Cytotoxicity against human Caco2 cells assessed as cell viability after 24 hrs by MTT assay
Assay type: functional, cell-based
MEASUREMENT CONTEXT: Caco-2, 24 h
pIC50: −log10 of the molar value.
Documented pIC50 across a set of molecules

- TEST SMILES: "C[C@H](CCC(=O)NC1CC1)[C@H]1CC[C@H]2[C@@H]3CC[C@@H]4C[C@@H](N=[N+]=[N-])CC[C@]4(C)[C@H]3CC[C@]12C"
  pIC50: "< 4.00"
- TEST SMILES: "C[C@H](CCC(N)=O)[C@H]1CC[C@H]2C3=CC[C@@H]4C[C@H](O)CC[C@]4(C)[C@H]3CC[C@]12C"
  pIC50: "< 4.00"

Please find the next molecule below.
Reported pIC50, molecule CCCNC(=O)CC[C@@H](C)[C@H]1CC[C@H]2[C@@H]3CC[C@@H]4C[C@@H](N=[N+]=[N-])CC[C@]4(C)[C@H]3CC[C@]12C : ____
< 3.00

----------
System: Caco-2
ASSAY DETAILS: Cytotoxicity against human Caco2 cells assessed as cell viability after 24 hrs by MTT assay
Type: functional, cell-based
MEASUREMENT CONTEXT: Caco-2, 24 h
METRIC: IC50

Example compounds with recorded IC50:
- TEST SMILES: "C[C@H](CCC(N)=O)[C@H]1CC[C@H]2[C@@H]3CC[C@@H]4C[C@@H](N=[N+]=[N-])CC[C@]4(C)[C@H]3CC[C@]12C"
  IC50: "> 500 µM"
- TEST SMILES: "C[C@H](CCC(=O)NCc1ccccc1)[C@H]1CC[C@H]2[C@@H]3CC[C@@H]4C[C@@H](N=[N+]=[N-])CC[C@]4(C)[C@H]3C[C@H](O)[C@]12C"
  IC50: "> 1000 µM"

Now, please, on to the next compound.
Find the recorded IC50 belonging to C[C@H](CCC(=O)O)[C@H]1CC[C@H]2C3=CC[C@@H]4C[C@H](O)CC[C@]4(C)[C@H]3CC[C@]12C and report it.
> 100 µM
